System: Staphylococcus aureus CCM 4516/08
Experiment: Antibacterial microdilution broth method
Format: cell-based
Settings: CCM4516, 48 h, read-out: MIC/IC90 S. aureus CCM 4516/08
assay-endpoint: MIC
I'd appreciate it if you included the unit after the number.

Consider the worked cases shown below.
O=C(Oc1cc(Cl)ccc1C(=O)Nc1cccc(Cl)c1)c1ccc(C(F)(F)F)cc1 [1b] | 1.95 µM
O=C(Oc1cc(Cl)ccc1C(=O)Nc1ccc(C(F)(F)F)cc1)c1ccc(C(F)(F)F)cc1 [1p] | 0.98 µM
O=C(Oc1ccc(Cl)cc1C(=O)Nc1ccc(Cl)c(Cl)c1)c1ccc(C(F)(F)F)cc1 [1e] | 0.98 µM

Problem: So what does the record say about MIC for O=C(Oc1ccc(Cl)cc1C(=O)Nc1ccc(F)cc1)c1ccc(C(F)(F)F)cc1 [1m] ?
Result: 7.81 µM

Problem: So what does the record say about MIC for O=C(Oc1ccc(Cl)cc1C(=O)Nc1cccc(F)c1)c1ccc(C(F)(F)F)cc1 [1k] ?
Result: 3.9 µM

###

System: Mtb. 53/2009
Assay: microbe, parasite or virus in culture
Assay type: cell-based
Details: Mycobacterium tuberculosis, 504 h, read-out: MIC Mtb. 53/2009
assay-endpoint: MIC (µM)
Expressed in µM, but write only the number.

O=C(Oc1cc(Cl)ccc1C(=O)Nc1ccc(Cl)cc1)c1ccc(C(F)(F)F)cc1 [1d] | 4
O=C(Oc1ccc(Cl)cc1C(=O)Nc1ccc(Cl)cc1)c1ccc(C(F)(F)F)cc1 [1c] | 4
O=C(Oc1ccc(Br)cc1C(=O)Nc1ccc(C(F)(F)F)cc1)c1ccc(C(F)(F)F)cc1 [1r] | 2

Problem: So what does the record say about MIC for O=C(Oc1ccc(Cl)cc1C(=O)Nc1ccc(Cl)c(Cl)c1)c1ccc(C(F)(F)F)cc1 [1e] ?
Result: 4

Problem: So what does the record say about MIC for O=C(Oc1ccc(Cl)cc1C(=O)Nc1cccc(Br)c1)c1ccc(C(F)(F)F)cc1 [1g] ?
Result: 2

Problem: So what does the record say about MIC for O=C(Oc1ccc(Cl)cc1C(=O)Nc1cccc(Cl)c1)c1ccc(C(F)(F)F)cc1 [1a] ?
Result: 4

###

Tested on: Escherichia coli CCM 4517
Test: Antibacterial microdilution broth method
Assay type: cell-based
Conditions: CCM4517, 48 h, read-out: MIC/IC90 E. coli CCM 4517
assay-endpoint: MIC

Consider the worked cases shown below.
CC1(C)S[C@@H]2[C@H](NC(=O)Cc3ccccc3)C(=O)N2[C@H]1C(=O)O [PNC, benzylpenicillin, reference compound] | > 500 µM
O=C(Oc1ccc(Cl)cc1C(=O)Nc1ccc(Cl)c(Cl)c1)c1ccc(C(F)(F)F)cc1 | > 500 µM
O=C(Oc1cc(Cl)ccc1C(=O)Nc1ccc(Br)cc1)c1ccc(C(F)(F)F)cc1 | > 250 µM
O=C(Oc1ccc(Cl)cc1C(=O)Nc1ccc(F)cc1)c1ccc(C(F)(F)F)cc1 | > 500 µM

Shift focus to the following entry.
Problem: So what does the record say about MIC for O=C(Oc1cc(Cl)ccc1C(=O)Nc1cccc(Br)c1)c1ccc(C(F)(F)F)cc1 ?
Result: > 500 µM

###

System: Staphylococcus aureus CCM 4516/08
Assay: Antibacterial microdilution broth method
Format: cell-based
Settings: CCM4516, 48 h, read-out: MIC/IC90 S. aureus CCM 4516/08
assay-endpoint: MIC (µM)
Expressed in µM, but write only the number.

O=C(Oc1cc(Cl)ccc1C(=O)Nc1cccc(Br)c1)c1ccc(C(F)(F)F)cc1 | 0.98
CC1(C)S[C@@H]2[C@H](NC(=O)Cc3ccccc3)C(=O)N2[C@H]1C(=O)O [PNC, benzylpenicillin, reference compound] | 0.98
O=C(Oc1cc(Cl)ccc1C(=O)Nc1ccc(Br)cc1)c1ccc(C(F)(F)F)cc1 | 0.98

Shift focus to the following entry.
Problem: So what does the record say about MIC for O=C(Oc1ccc(Cl)cc1C(=O)Nc1ccc(C(F)(F)F)cc1)c1ccc(C(F)(F)F)cc1 ?
Result: 7.81

###

System: Escherichia coli CCM 4517
Experiment: Antibacterial microdilution broth method
Format: cell-based
Conditions: CCM4517, 48 h, read-out: MIC/IC90 E. coli CCM 4517
assay-endpoint: MIC

O=C(Oc1cc(Cl)ccc1C(=O)Nc1ccc(C(F)(F)F)cc1)c1ccc(C(F)(F)F)cc1 [1p] | 250 µM
O=C(Oc1ccc(Cl)cc1C(=O)Nc1ccc(C(F)(F)F)cc1)c1ccc(C(F)(F)F)cc1 [1o] | > 125 µM
O=C(Oc1cc(Cl)ccc1C(=O)Nc1cccc(Cl)c1)c1ccc(C(F)(F)F)cc1 [1b] | > 250 µM

Shift focus to the following entry.
Problem: Lab note: need MIC for O=C(Oc1ccc(Cl)cc1C(=O)Nc1cccc(F)c1)c1ccc(C(F)(F)F)cc1 [1k] on Escherichia coli CCM 4517, anyone have it?
Result: > 250 µM

###

Recorded log10 MIC for the following compounds
System: Mtb. 234/2005
Assay: microbe, parasite or virus in culture
Format: cell-based
Settings: Mycobacterium tuberculosis, 336 h, read-out: MIC Mtb. 234/2005
Could you please treat all values as log10 of MIC in µM?

Consider the worked cases shown below.
O=C(Oc1ccc(Br)cc1C(=O)Nc1ccc(C(F)(F)F)cc1)c1ccc(C(F)(F)F)cc1 | -0.30
O=C(Oc1ccc(Cl)cc1C(=O)Nc1ccc(Cl)c(Cl)c1)c1ccc(C(F)(F)F)cc1 | 0.00
O=C(Oc1cc(Cl)ccc1C(=O)Nc1cccc(Cl)c1)c1ccc(C(F)(F)F)cc1 | 0.90
O=C(Oc1ccc(Cl)cc1C(=O)Nc1ccc(Br)cc1)c1ccc(C(F)(F)F)cc1 | 0.30
O=C(Oc1cc(Cl)ccc1C(=O)Nc1ccc(Cl)cc1)c1ccc(C(F)(F)F)cc1 | 0.60
O=C(Oc1ccc(Cl)cc1C(=O)Nc1ccc(C(F)(F)F)cc1)c1ccc(C(F)(F)F)cc1 | -0.30
O=C(Oc1cc(Cl)ccc1C(=O)Nc1ccc(Br)cc1)c1ccc(C(F)(F)F)cc1 | 0.30
O=C(Oc1cc(Cl)ccc1C(=O)Nc1ccc(Cl)c(Cl)c1)c1ccc(C(F)(F)F)cc1 | 0.00

Problem: So what does the record say about log10 MIC for O=C(Oc1ccc(Cl)cc1C(=O)Nc1cccc(Br)c1)c1ccc(C(F)(F)F)cc1 ?
Result: 0.00

Problem: So what does the record say about log10 MIC for O=C(Oc1ccc(Cl)cc1C(=O)Nc1cccc(Cl)c1)c1ccc(C(F)(F)F)cc1 ?
Result: 0.60

Problem: So what does the record say about log10 MIC for O=C(Oc1ccc(Cl)cc1C(=O)Nc1ccc(Cl)cc1)c1ccc(C(F)(F)F)cc1 ?
Result: 0.60

###

Recorded MIC for the following compounds
Tested on: Mycobacterium avium 330/88
Assay: Antimycobacterial MIC micromethod
Format: cell-based
Settings: 330/88, 504 h, 21 d
Expressed in µM, but write only the number.

Problem: So what does the record say about MIC for O=C(Oc1cc(Cl)ccc1C(=O)Nc1cccc(F)c1)c1ccc(C(F)(F)F)cc1 ?
Result: 16

Problem: So what does the record say about MIC for O=C(Oc1ccc(Cl)cc1C(=O)Nc1cccc(F)c1)c1ccc(C(F)(F)F)cc1 ?
Result: 32

Problem: So what does the record say about MIC for O=C(Oc1ccc(Cl)cc1C(=O)Nc1cccc(Br)c1)c1ccc(C(F)(F)F)cc1 ?
Result: 8

###

Test system: Staphylococcus epidermidis H 6966/08
Assay: Antibacterial microdilution broth method
Assay type: cell-based
Conditions: H6966/08, 24 h, read-out: MIC/IC90 S. epidermidis H 6966/08
Recorded MIC for the following compounds
Expressed in µM, but write only the number.

O=C(Oc1ccc(Cl)cc1C(=O)Nc1cccc(F)c1)c1ccc(C(F)(F)F)cc1 | 3.9
CC1(C)S[C@@H]2[C@H](NC(=O)Cc3ccccc3)C(=O)N2[C@H]1C(=O)O [PNC, benzylpenicillin, reference compound] | 250
O=C(Oc1ccc(Cl)cc1C(=O)Nc1ccc(Cl)c(Cl)c1)c1ccc(C(F)(F)F)cc1 | 0.49

Problem: Lab note: need MIC for O=C(Oc1cc(Cl)ccc1C(=O)Nc1cccc(Cl)c1)c1ccc(C(F)(F)F)cc1 on Staphylococcus epidermidis H 6966/08, anyone have it?
Result: 0.98

Problem: Lab note: need MIC for O=C(Oc1ccc(Cl)cc1C(=O)Nc1ccc(C(F)(F)F)cc1)c1ccc(C(F)(F)F)cc1 on Staphylococcus epidermidis H 6966/08, anyone have it?
Result: 3.9

Problem: Lab note: need MIC for O=C(Oc1cc(Cl)ccc1C(=O)Nc1ccc(C(F)(F)F)cc1)c1ccc(C(F)(F)F)cc1 on Staphylococcus epidermidis H 6966/08, anyone have it?
Result: 0.49

Problem: Lab note: need MIC for O=C(Oc1cc(Cl)ccc1C(=O)Nc1cccc(Br)c1)c1ccc(C(F)(F)F)cc1 on Staphylococcus epidermidis H 6966/08, anyone have it?
Result: 0.49

Problem: Lab note: need MIC for O=C(Oc1ccc(Cl)cc1C(=O)Nc1ccc(F)cc1)c1ccc(C(F)(F)F)cc1 on Staphylococcus epidermidis H 6966/08, anyone have it?
Result: 31.2

Problem: Lab note: need MIC for O=C(Oc1cc(Cl)ccc1C(=O)Nc1ccc(Br)cc1)c1ccc(C(F)(F)F)cc1 on Staphylococcus epidermidis H 6966/08, anyone have it?
Result: 0.49

Measured values drawn from paper PMC6270420 for this set.
